Source listed as patent US9765039B2.

# System: c-myc
# experimental_details: Inhibition of c-myc expression in cancer cell lines (mRNA, real-time PCR)
# Assay type: cell-based
# Set-up: key: Active: Compounds with an IC50 value less than 30 μM were deemed to be active
# applied_conditions: Human AML MV4-11 cells, 3 hours
recorded_metric: c-myc activity (IC50 < 30 μM)

COc1cc(OC)c2c(=O)[nH]c(-c3ccc(OCCNC(C)C)c(-c4ccc(S(C)(=O)=O)cc4C(F)(F)F)n3)nc2c1; Active
COc1cc(OC)c2c(=O)[nH]c(-c3ccc(OCCNC(C)C)c(-c4ccc(S(C)(=O)=O)cc4)c3)nc2c1; Active
COc1cc(OC)c2c(=O)[nH]c(-c3ccc(OCCO)c(-c4cccc(S(C)(=O)=O)c4)n3)nc2c1 [Example 36, methanesulfonate]; Not Active
COc1cc(OC)c2c(=O)[nH]c(-c3cccc(-c4ccc([S+](C)[O-])cc4)n3)nc2c1 (stereo not shown); Not Active
CCS(=O)(=O)c1ccc(-c2nc(-c3nc4cc(OC)cc(OC)c4c(=O)[nH]3)ccc2OCCNC(C)C)cc1; Active

Task: Write down the reported c-myc activity (IC50 < 30 μM) of CCS(=O)(=O)c1ccc(-c2nc(-c3nc4cc(OC)cc(OC)c4c(=O)[nH]3)ccc2OCCN2CCCC2)cc1 , test system: c-myc.
Output: Active

Task: Write down the reported c-myc activity (IC50 < 30 μM) of COc1cc(OC)c2c(=O)[nH]c(-c3ccc(OCCO)c(-c4ccc(S(C)(=O)=O)cc4)n3)nc2c1 , test system: c-myc.
Output: Not Active
